# System: MDA-MB-436
# testDescription: Cell growth inhibition, MDA-MB-436 breast cancer cells (WST-8)
# Format: cell-based
# conditionParameters: Homo sapiens, MDA-MB-436, 96 h; 4 days; read-out: IC50 (nM) MDA-MB-436 Cell Line (WST assay)
For each record, write down the corresponding IC50.
Note: a bare number is incomplete; add the unit.

Below: 5 compounds and their reported IC50.
COc1cc2c(cc1-c1c(C)noc1C)[nH]c1nc(C)nc(Nc3c(C)nn4ccccc34)c12 33.7 nM
COc1cc2c(cc1-c1c(C)noc1C)[nH]c1nc(C)nc(Nc3nn(C)c4ccccc34)c12 59.6 nM
CCn1nc(C(F)(F)F)cc1Nc1nc(C)nc2[nH]c3cc(-c4c(C)noc4C)c(OC)cc3c12 39.2 nM
COc1cc2c(cc1-c1c(C)noc1C)[nH]c1nc(C)nc(Nc3c4c(nn3C(C)C)CCC4)c12 11.3 nM
COc1cc2c(cc1-c1c(C)noc1C)[nH]c1nc(C)nc(Nc3c(C4CC4)c(C)nn3C)c12 210 nM

Provide each entry's IC50 from the list below.
1. COc1cccc(Nc2nc(C)nc3[nH]c4cc(-c5c(C)noc5C)c(OC)cc4c23)c1
2. COc1cc2c(cc1-c1c(C)noc1C)[nH]c1nc(C)nc(Nc3cn(C)nc3C3CCC3)c12
3. COc1cc2c(cc1-c1c(C)noc1C)[nH]c1nc(C)nc(Nc3cnccc3C)c12
4. COc1cc2c(cc1-c1c(C)noc1C)[nH]c1nc(C)nc(Nc3cc(Cl)ccc3F)c12
5. COc1cc2c(cc1-c1c(C)noc1C)[nH]c1nc(C)nc(Nc3c(-c4ccccc4)nn(C(C)C)c3C)c12
6. COc1cc2c(cc1-c1c(C)noc1C)[nH]c1nc(C)nc(Nc3ccnn3C(C)(C)C)c12

**A:**
1. 211 nM
2. 40 nM
3. 679 nM
4. 740 nM
5. 249 nM
6. 83.7 nM

* * *

# Test system: MOLM-13
# testDescription: Cell growth inhibition, MOLM-13 leukemia cells (CellTiter-Glo)
# Format: cell-based
# conditionParameters: Homo sapiens, MOLM-13, 96 h; 4 days; read-out: IC50 (nM) MOLM-13 Cell Line (CellTiter-Glo assay)
Rule for this label: Condition met means IC50 is less than 40 nM; Condition not met means IC50 is at least 40 nM.

molecule	groupLabel
COc1cc2c(cc1-c1c(C)noc1C)[nH]c1nc(C)nc(Nc3cnn4c3CCC4)c12 [Cpd. No. 134]	Condition met
CCc1nn(CC)c(CC)c1Nc1nc(C)nc2[nH]c3cc(-c4c(C)noc4C)c(OC)cc3c12 [Cpd. No. 241]	Condition met
COc1cc2c(cc1-c1c(C)noc1C)[nH]c1nc(C)nc(Nc3c(C(C)C)cnn3C)c12 [Cpd. No. 79]	Condition not met

**Q:** Given the entry COc1cc2c(cc1-c1c(C)noc1C)[nH]c1nc(C)nc(Nc3cc(F)cc(Cl)c3)c12 [Cpd. No. 225] , would its reported IC50 be below 40 nM?
**A:** Condition not met

**Q:** Given the entry COc1cc2c(cc1-c1c(C)noc1C)[nH]c1ncnc(Nc3nn(C)c4ccccc34)c12 [Cpd. No. 17] , would its reported IC50 be below 40 nM?
**A:** Condition met
